- Method description: protein stability index of a GFP-peptide fusion (yeast GPS) (PSI 1-4); higher = more stable; sorted into four equal gates, so the index is relative within each strain
- Recorded conditions: ubr1∆
Reported metric: protein stability index
Answers are plain numbers.

Consider the following illustrative entries.
Which protein stability index is reported for this sequence? MASLPHPKIVKKHTKKF [RPL32]
2.83

Field request: protein stability index | item: KKMGVPYAIIKGKARLG [RPL8B]
3.41

Report protein stability index for KRYRLKESQLPRIQRAD [RPB5] please.
3.07

Given LCDNFNHFSLSYKDSGL [COR1] , state its recorded protein stability index.
2.5

Item ETLGDILKRDFELVSDL [ECM29] has what recorded protein stability index?
3.08

Fill in the blank: the reported protein stability index of EALVERRRAFKRSQKKH [RPB4] is ____.
3.31

What value of protein stability index has been recorded for this entry: SMENYHLLIKIIRQLSE [SRB8]
1.63

Kindly review the next sequence as well.
Which value of protein stability index has been reported for QLYEDLCRYEDTLSKLV [MED4] in the records?
3.25

====

- Method description: protein stability index of a GFP-peptide fusion (yeast GPS) (PSI 1-4); higher = more stable; sorted into four equal gates, so the index is relative within each strain
- Recorded conditions: san1∆
Please mark Condition met if the recorded protein stability index is equal to or greater than 3, and Condition not met if it falls below.

Look over these answered cases.
Please tell me: is the sequence EDDNNNVEKPSSKPAFN [YLR335W/NUP2] at or over 3 in terms of protein stability index?
Condition met

Answer whether protein stability index of KFDSRIRGILMASGSTT [PRP8] is greater than or equal to 3.
Condition not met

Exam item: decide whether the reported protein stability index for LLIADSRRPEPKKFGGK [RPS16A] is at least 3.
Condition met

Is protein stability index for SNMQKSLLPYYHLTKAV [RPN3] at or above 3?
Condition not met

Dear colleague, could you confirm whether LALPVFHIGYFKATIQI [RPO31] has protein stability index at or above 3?
Condition not met

Continuing:
Does the reported protein stability index for HQFHDILEEKTDLHLPK [NSL1] fall at or above the 3 mark?
Condition not met

In plain terms: is recorded protein stability index at least 3 for ISDYQQLESIYFRILLP [SWI1] ?
Condition not met

Identify whether the reported protein stability index of the following sequence is 3 or greater: QQVPPLPDELTLSYDDI [DLS1]
Condition not met

Exam item: decide whether the reported protein stability index for DSPFSLICQNNLNAFVD [SRP72] is at least 3.
Condition not met

Identify whether the reported protein stability index of the following sequence is 3 or greater: SDDDNIGQSEELSDKEI [ISW2]
Condition met

// inclusive: protein stability index at least 3? input: DDNETENPNFWRQFGNR [GRR1]
Condition met

Given RVTGGMKVKADRDESSP [RPS14A] , state whether its protein stability index is at least 3.
Condition met

====

- Method description: protein stability index of a GFP-peptide fusion (yeast GPS) (PSI 1-4); higher = more stable; sorted into four equal gates, so the index is relative within each strain
- Recorded conditions: san1∆
# binarize protein stability index: threshold 3 inclusive, high side T, low side F

These solved cases illustrate the format of a correct answer.
// inclusive: protein stability index at least 3? input: LGMGKAVEKTLALGCHF [POP7]
F

Kindly determine if protein stability index recorded for FFTIDHFIQKLHTARKI [SIR2] is above or exactly 3.
F

Can RFRGKRVVYLKHLEDNT [RPL6A] be said to have protein stability index at or above 3?
F

Please indicate if the recorded protein stability index for REDIDDPLAKVNVLLQS [BRR2] meets or exceeds 3.
T

Given MDLLKFSSLAISEINFL [CSI1] , state whether its protein stability index is at least 3.
F

Hi team, for RMKQYLKTKLLEEVEGS [RPB7] , is the recorded protein stability index at or above 3?
T

Is protein stability index at least 3? Consider NQYKLVFYQVTPEDADE [RPL22B]
F

Is reported protein stability index greater than or equal to 3 here: SNLTIYPIYELLMSCPR [GRR1]
F

Could you tell me if the measured protein stability index of EEYARRLAEFKRRKLDL [SMC4] reaches 3 or more?
F

Say whether EKTMVKKNLGRLTRLWI [PRP8] shows protein stability index of 3 or more.
F

---
Is protein stability index at least 3? Consider ESNNKKYPIFTGESWVK [YDL088C/ASM4]
F

Could you verify whether the entry CDILVATPGRLIDSLEN [PRP28] shows protein stability index of no less than 3?
T

Does the sequence GKKRFRVVTVDGKLIDI [SMC4] have recorded protein stability index that is 3 or more?
T

Data origin: the supplement of paper PMC9732359
